// bioavailability lookup, one value per entry
assay: Oral bioavailability in mouse at 20 mg/kg; format: ADME, organism-based; conditions: in vivo
Numbers only here, please. The scale is %.

Specify measured bioavailability for `N#Cc1ccc(N2CCN(c3cccc(C(=O)N[C@H]4C5CC6CC4C[C@](O)(C6)C5)n3)CC2)cc1` . 5

Specify measured bioavailability for `CS(=O)(=O)c1ccc(N2CCN(c3cccc(C(=O)N[C@H]4C5CC6CC4C[C@](O)(C6)C5)n3)CC2)cc1` . 17

Specify measured bioavailability for `C[C@@H]1CN(c2ccc(C(C)(C)O)cc2)CCN1c1cccc(C(=O)N[C@H]2C3CC4CC2C[C@](O)(C4)C3)n1` . 32

Specify measured bioavailability for `C[C@@H]1CN(c2ccc(S(C)(=O)=O)cc2)CCN1c1cccc(C(=O)N[C@H]2C3CC4CC2C[C@](O)(C4)C3)n1` . 41
